Test: Oral pharmacokinetic study
Assay type: in vivo, Sprague Dawley rats
Conditions: Sprague Dawley, rat, po; BA; 100 mg/kg orally, plasma
Measured Endpoint: Cmax (ng/mL)
The figure you give is taken to be in ng/mL; do not add the unit.

Exam item: Identify Cmax associated with the compound C=C(C)[C@@H]1CC[C@]2(C(=O)O)CC[C@]3(C)[C@H](CC[C@@H]4[C@@]5(C)CC[C@H](O)C(C)(C)[C@@H]5CC[C@]43C)[C@@H]12 [BA free drug, 3β, hydroxy-lup-20(29)-en-28-oic acid]
Marked response: 1160

====

Entries and their Tmax values follow.
Assay: Oral pharmacokinetic study
Assay type: in vivo, Sprague Dawley rats
Conditions: Sprague Dawley, rat, plasma, po; 100 mg/kg orally
The figure you give is taken to be in h; do not add the unit.

Exam item: Identify Tmax associated with the molecule COc1ccc2cc3[n+](cc2c1OC)CCc1cc2c(cc1-3)OCO2.[Cl-] [BBR free drug]
Marked response: 1.41

Exam item: Identify Tmax associated with the molecule C=C(C)[C@@H]1CC[C@]2(C(=O)O)CC[C@]3(C)[C@H](CC[C@@H]4[C@@]5(C)CC[C@H](O)C(C)(C)[C@@H]5CC[C@]43C)[C@@H]12 [BA free drug, 3β, hydroxy-lup-20(29)-en-28-oic acid]
Marked response: 2.36

Just for reference, paper PMC3948684 is where these values come from.
